Molecular target: T1, cyno PMEL17 (cyno, UniProt A0A2K5WWN0 25-668)
T1 construct: whole, on cells; also called HKB11-cyno; HKB11-cyno-PMEL17
T1 sequence: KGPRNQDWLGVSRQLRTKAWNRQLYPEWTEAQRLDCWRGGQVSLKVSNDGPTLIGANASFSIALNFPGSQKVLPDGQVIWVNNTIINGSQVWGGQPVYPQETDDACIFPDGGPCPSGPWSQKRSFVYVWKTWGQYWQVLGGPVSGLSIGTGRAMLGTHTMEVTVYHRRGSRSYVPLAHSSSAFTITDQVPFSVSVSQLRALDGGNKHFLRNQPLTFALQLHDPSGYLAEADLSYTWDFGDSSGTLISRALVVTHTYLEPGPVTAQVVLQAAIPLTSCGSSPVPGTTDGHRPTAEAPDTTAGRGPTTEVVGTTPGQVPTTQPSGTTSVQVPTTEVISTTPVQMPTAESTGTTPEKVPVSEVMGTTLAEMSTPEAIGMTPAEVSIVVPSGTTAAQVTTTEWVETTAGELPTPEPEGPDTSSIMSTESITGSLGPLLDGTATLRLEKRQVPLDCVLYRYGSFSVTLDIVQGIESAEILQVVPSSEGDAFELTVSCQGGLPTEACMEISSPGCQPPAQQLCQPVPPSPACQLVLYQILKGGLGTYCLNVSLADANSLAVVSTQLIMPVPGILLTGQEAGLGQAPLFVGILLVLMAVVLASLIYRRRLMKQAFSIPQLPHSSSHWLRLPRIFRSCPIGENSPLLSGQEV
Assay: FACS titration of IgG on HKB11-cyno-PMEL17 cells, Alexa Fluor detection antibody
Quick list: pEC50 per entry.
Here pEC50 is given on a logarithmic scale as minus log10 of the concentration in mol/L.

binder	pEC50
Y010355 (antibody, V domains shown, Tested as purified human IgG) VH: EVQLVESGGGLVKPGGSLRLSCAASGFTFSNYWISWVRQAPGKGLEWVGRIKSKTYGGTTDYAEPVKGRFTISRDDSKNTLYLQMNSLKTEDTAVYYCARTSRRSYAFDYWGQGTLVTVSS VL: DIQMTQSPSTLSASVGDRVTITCRASQSISSWLAWYQQKPGKAPKLLIYDASSLESGVPSRFSGSGSGTEFTLTISSLQPEDFATYYCQQITRYPVTFGQGTKVEIK	8.41

Please examine the following record next.
input: I am curious: what pEC50 value has been reported for Y010900 (antibody, V domains shown, Tested as purified human IgG) VH: EVQLVESGGGLVKPGGSLRLSCAASGFTFSNAWMSWVRQAPGKGLEWVGRIKSKTDAGTTDYAAPVKGRFTISRDDSKNTLYLQMNSLKTEDTAVYYCARTIYPSAPSSSLDYWGQGTLVTVSS VL: DIQMTQSPSSLSASVGDRVTITCRASQGISNYLAWYQQKPGKVPKLLIYAASTLQSGVPSRFSGSGSGTDFTLTISSLQPEDVATYYCQQLIFFPLTFGQGTKVEIK ?
output: 8.92
